Exercise: state measured T/C for each of the compounds provided.
System: L1210 leukemia ip in BDF1 mice, survival T/C
protocol details: NCI In Vivo Anticancer Drug Screen. Data for tumor model L1210 Leukemia (intraperitoneal) in B6D2F1 (BDF1) mice
assay context: endpoint: mean survival time; dose: 400.0 mg/kg/injection; schedule: Q04DX003 (ip); vehicle: saline with Tween-80; higher = longer survival
Toxic doses and inconclusive results are not listed.

Q. Given the compound CC(=O)c1cccc(NC(=O)Oc2cc(C)c(Cl)c(C)c2)c1 , what is its reported T/C?
A. 90 % of control

Q. For CC1=C(C)C2(C)C1(C)C1(C)NN=NC12c1ccccc1 (stereo not given) , what is its reported T/C?
A. 101 % of control

Q. What does the data say about its T/C? Entry: COc1ccc(N2CCN(/C=C/C(=O)c3ccc(C)cc3C)CC2)cc1
A. 106 % of control

Q. Look up T/C: CC1(C)CC(N=Cc2ccccc2O)CC(C)(C)N1O.CC1(C)CC(N=Cc2ccccc2O)CC(C)(C)N1O.[Pd]
A. 88 % of control

Q. Item CCCCNC(=O)CS(=O)(=O)c1ccc(Cl)cc1 has what recorded T/C?
A. 94 % of control

###

Test system: L1210 leukemia ip in BDF1 mice, survival T/C
protocol details: NCI In Vivo Anticancer Drug Screen. Data for tumor model L1210 Leukemia (intraperitoneal) in B6D2F1 (BDF1) mice
assay context: endpoint: mean survival time; dose: 400.0 mg/kg/injection; schedule: Q01DX009 (ip); vehicle: saline; higher = longer survival
Toxic doses and inconclusive results are not listed.
quantity: T/C

Q. Value lookup for T/C; key = CC(=O)OC(C)CN(C)C (centres undefined)
A. 100 % of control

Q. Quick one: T/C for COc1cc(OC)c2cc1Cc1cc(c(OC)cc1OC)Cc1cc(c(OC)cc1OC)Cc1cc(c(OC)cc1OC)C2 ?
A. 86 % of control

Q. I am curious: what T/C value has been reported for CC(=O)c1ccc(OCc2ccccc2)cc1O ?
A. 100 % of control

Q. Would you kindly share the measured T/C for CCN1C(=O)CC(O)C1=O (centres undefined) ?
A. 97 % of control

Q. Query: T/C; subject: CC(Cc1ccc(O)c(O)c1)C(C)Cc1ccc(O)c(O)c1 (centres undefined)
A. 100 % of control

Q. // returns reported T/C for input CCC1CCCC(C(=O)O)N1 (centres undefined)
A. 100 % of control

Q. Recorded T/C of CC(N)C(=O)O (centres undefined) , please.
A. 98 % of control

Q. // T/C lookup, key: CCOc1ccc2cc(S(=O)(=O)O)ccc2c1N
A. 87 % of control

Q. Quick one: T/C of CC(=O)OCc1cccc(C)n1 ?
A. 100 % of control

Q. Which T/C reading was recorded for the compound Cc1ccc(C)c(C(=O)c2ccccc2C(=O)O)c1 ?
A. 98 % of control

Q. Any idea what T/C was measured for O=C(O)C(CCc1ccccc1)(CCc1ccccc1)C(=O)O ?
A. 111 % of control

Q. If you can, please state the reported T/C value of CC(NCCO)C(O)c1ccccc1 (centres undefined) .
A. 103 % of control

Q. Name the recorded T/C for CCOc1ccn(CC(=O)Nc2nccs2)c(=O)n1 .
A. 105 % of control

Q. Please report the recorded T/C for Cc1ccc(NCCN2CCCCC2)c2c(=O)c3ccccc3sc12 .
A. 107 % of control

All values here come from PubChem BioAssay AID248.
